# assay_protocol: Oxygen radical absorbance capacity (ORAC) antioxidant assay
quantity_measured: ORAC

• Fc1cccc(-c2c[nH]c3ncc(-c4cnn(C5CCNCC5)c4)cc23)c1 = 1.0 ± 0.1
• COc1cc(-c2c[nH]c3ncc(-c4cnn(C5CCN(C)CC5)c4)cc23)c(F)cc1C = 1.3 ± 0.1
• CN1CCC(n2cc(-c3cnc4[nH]cc(-c5cccc(F)c5)c4c3)cn2)CC1 = 1.02 ± 0.03
• Clc1cc(Cl)cc(-c2c[nH]c3ncc(-c4cnn(C5CCNCC5)c4)cc23)c1 = 0.55 ± 0.07
• COc1cccc(-c2c[nH]c3ncc(-c4cnn(C5CCNCC5)c4)cc23)c1 = 1.3 ± 0.1
• COc1cccc(-c2c[nH]c3ncc(-c4cnn(C5CCN(C)CC5)c4)cc23)c1 = 1.25 ± 0.07
• COc1cc(-c2c[nH]c3ncc(-c4cnn(C5CCNCC5)c4)cc23)c(F)cc1C = 1.20 ± 0.1

---

# system_under_test: DYRK1B (Homo sapiens, UniProt Q9Y463)
# Sequence (Q9Y463 whole entry): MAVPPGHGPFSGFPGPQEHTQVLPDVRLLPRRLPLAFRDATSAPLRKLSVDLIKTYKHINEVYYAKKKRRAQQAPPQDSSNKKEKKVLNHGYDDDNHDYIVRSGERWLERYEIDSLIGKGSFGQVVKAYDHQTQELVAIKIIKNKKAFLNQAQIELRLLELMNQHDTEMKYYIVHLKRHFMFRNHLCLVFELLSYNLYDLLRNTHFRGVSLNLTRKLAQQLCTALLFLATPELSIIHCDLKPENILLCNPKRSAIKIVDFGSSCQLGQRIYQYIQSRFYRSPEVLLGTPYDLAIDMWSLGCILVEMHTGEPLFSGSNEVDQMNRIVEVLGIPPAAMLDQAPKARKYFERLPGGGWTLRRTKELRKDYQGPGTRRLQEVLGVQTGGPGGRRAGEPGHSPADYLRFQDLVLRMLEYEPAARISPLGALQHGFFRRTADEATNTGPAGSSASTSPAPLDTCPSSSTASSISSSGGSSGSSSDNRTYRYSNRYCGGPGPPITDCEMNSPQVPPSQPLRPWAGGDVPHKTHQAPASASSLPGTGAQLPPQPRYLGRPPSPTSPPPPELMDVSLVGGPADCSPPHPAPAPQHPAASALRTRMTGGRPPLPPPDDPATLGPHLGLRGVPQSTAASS
# assay_protocol: ADP-Glo DYRK1B kinase enzyme inhibition assay
# condition_description: read-out: IC50 (nM) DYRK1B; ATP (10 μmol/well) and DYRKtidE (4 μmol/well) as substrate; triplicate
Rule: measured IC50 below 200 nM gets 1.0; anything equal to or greater than 200 nM gets 0.0.

* COc1cccc(-c2c[nH]c3ncc(-c4cnn(C5CCNCC5)c4)cc23)c1 [Compound 9] | 1.0
* COc1cccc(-c2c[nH]c3ncc(-c4cnn(C5CCN(C)CC5)c4)cc23)c1 [Compound 5] | 1.0
* Clc1cc(Cl)cc(-c2c[nH]c3ncc(-c4cnn(C5CCNCC5)c4)cc23)c1 [Compound 10] | 0.0
* COc1cc(-c2c[nH]c3ncc(-c4cnn(C5CCN(C)CC5)c4)cc23)c(F)cc1C [Compound 7] | 1.0
* CN1CCC(n2cc(-c3cnc4[nH]cc(-c5cccc(F)c5)c4c3)cn2)CC1 [Compound 1] | 1.0
* COc1cc(-c2c[nH]c3ncc(-c4cnn(C5CCNCC5)c4)cc23)c(F)cc1C [Compound 11] | 1.0
* CN1CCC(n2cc(-c3cnc4[nH]cc(-c5cc(Cl)cc(Cl)c5)c4c3)cn2)CC1 [Compound 6] | 0.0
* Fc1cccc(-c2c[nH]c3ncc(-c4cnn(C5CCNCC5)c4)cc23)c1 [Compound 8] | 1.0

---

Reported IC50 values follow for various compounds
# system_under_test: Human DYRK1A Kinase (Homo sapiens, UniProt Q13627)
# assay_protocol: ADP-Glo DYRK1A kinase enzyme inhibition assay
# condition_description: read-out: IC50 (nM) DYRK1A; ATP (10 μmol/well) and DYRKtidE (4 μmol/well) as substrate; triplicate
quantity_measured: IC50 (nM)

* COc1cc(-c2c[nH]c3ncc(-c4cnn(C5CCNCC5)c4)cc23)c(F)cc1C | 165
* Fc1cccc(-c2c[nH]c3ncc(-c4cnn(C5CCNCC5)c4)cc23)c1 | 48
* COc1cccc(-c2c[nH]c3ncc(-c4cnn(C5CCN(C)CC5)c4)cc23)c1 | 79
* COc1cccc(-c2c[nH]c3ncc(-c4cnn(C5CCNCC5)c4)cc23)c1 | 81
* Clc1cc(Cl)cc(-c2c[nH]c3ncc(-c4cnn(C5CCNCC5)c4)cc23)c1 | 450
* CN1CCC(n2cc(-c3cnc4[nH]cc(-c5cccc(F)c5)c4c3)cn2)CC1 | 41
